targetOfAssay: Muscarinic acetylcholine receptor M5 (Homo sapiens) (UniProt P08912)
Sequence (P08912 whole entry, looked up): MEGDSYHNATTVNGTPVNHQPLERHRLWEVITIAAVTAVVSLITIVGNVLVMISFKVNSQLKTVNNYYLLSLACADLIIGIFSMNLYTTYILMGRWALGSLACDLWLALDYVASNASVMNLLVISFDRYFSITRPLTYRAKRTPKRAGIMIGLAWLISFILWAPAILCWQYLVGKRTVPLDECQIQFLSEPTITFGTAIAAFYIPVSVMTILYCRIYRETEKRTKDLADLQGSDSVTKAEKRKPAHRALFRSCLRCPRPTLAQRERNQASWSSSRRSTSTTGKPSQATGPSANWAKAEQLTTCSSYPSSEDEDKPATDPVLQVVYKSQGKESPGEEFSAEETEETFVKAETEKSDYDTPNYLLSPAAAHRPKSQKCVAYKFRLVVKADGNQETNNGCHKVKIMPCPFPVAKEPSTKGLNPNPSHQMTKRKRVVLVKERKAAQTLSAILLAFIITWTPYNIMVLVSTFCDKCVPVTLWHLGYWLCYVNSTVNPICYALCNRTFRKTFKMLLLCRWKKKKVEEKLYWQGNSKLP
assay: human M5 potentiators of ACh EC20 response – cell-based, CHO-K1 hM5, Fluo-4 calcium flux, concentration-response, confirmation (AID 743102)
setupConditions: ACh EC20 PAM
pEC50: −log10 of the molar value.
Entries annotated with measured pEC50
assayMetric: pEC50

[
  {
    "lineNotation": "CCN(Cc1cccc(C)c1)C(=O)C1CCN(S(=O)(=O)c2ccc3cn[nH]c3c2)CC1",
    "reported": 6.00
  },
  {
    "lineNotation": "CCN(Cc1ccccc1)C(=O)C1CCN(S(=O)(=O)c2cccc(Cl)c2)CC1",
    "reported": 5.32
  },
  {
    "lineNotation": "CCN(Cc1ccccc1Cl)C(=O)C1CCN(S(=O)(=O)c2ccc3[nH]ncc3c2)CC1",
    "reported": 6.47
  },
  {
    "lineNotation": "CCN(Cc1ccccc1C(F)(F)F)C(=O)C1CCN(S(=O)(=O)c2ccc3cn[nH]c3c2)CC1",
    "reported": 6.38
  },
  {
    "lineNotation": "CCN(Cc1cccc(OC)c1)C(=O)C1CCN(S(=O)(=O)c2ccc3cn[nH]c3c2)CC1",
    "reported": 5.57
  }
]
